Provide the recorded %Inh for the entries that follow.
- System: CTK
- Construct: gene MATK
- cond: concentration: 1 μM, replicates: in singlicate; n = 1;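 further: KINOMEscan kinase panel screen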
# output: bare number, implied unit %

Name the recorded %Inh for Fc1ccc(-c2nc[nH]c2-c2ccncc2)cc1 [SB-217360] .
31

Name the recorded %Inh for Cc1ccccc1-c1cc(-c2c[nH]nc2-c2ccccn2)ccn1 [GW680061] .
0

Name the recorded %Inh for COc1ccc(Nc2nccc(N3CCC(NC(=O)c4cc5ccccc5s4)C3)n2)cc1 (centres unmarked) [GSK1379738] .
0

Name the recorded %Inh for Nc1ncnc2occ(-c3ccc4c(c3)CCN4C(=O)Cc3cc(F)ccc3F)c12 [GSK2645446] .
0

Name the recorded %Inh for CC(=O)c1c(C)c2cnc(Nc3ccc(N4CCNCC4)cn3)nc2n(C2CCCC2)c1=O .
0

* * *

- Tested on: ABL2
- cond: concentration: 1 μM, replicates: in singlicate; n = 1
Each record's class is read off its %Inh using these ranges: low-valued: < 2%; mid-valued: ≥ 2% and < 9%; high-valued: ≥ 9%

Exercise: read the entry COC(=O)c1cccc(NC(=O)NC2CCN(c3ccnc(Nc4ccc(OC)cc4)n3)C2)c1 (stereo not drawn) [GSK1379746] and state which class it falls under.
high-valued

Exercise: read the entry COC(=O)C(Cc1ccccc1)NC(=O)NC1CCN(c2ccnc(Nc3ccc(F)cc3)n2)C1 (stereo not drawn) [GSK1379714] and state which class it falls under.
low-valued

Exercise: read the entry COc1ccc(Nc2nccc(-c3ccc(NC(=O)c4cc5cc(F)ccc5[nH]4)cc3)n2)cc1 [GSK1229496] and state which class it falls under.
low-valued

Exercise: read the entry CC(C)c1ccc(O)cc1Nc1ccnc2ccc(C(F)(F)F)cc12 [GW482059] and state which class it falls under.
mid-valued

Exercise: read the entry CNCc1ccc2nc(NC(=O)c3ccc(C(C)(C)C)cc3)cn2c1 and state which class it falls under.
low-valued

Exercise: read the entry CS(=O)(=O)CCNCc1nc(-c2ccc3ncnc(Nc4ccc5c(cnn5Cc5ccccc5)c4)c3c2)cs1.Cl.Cl [GW569716] and state which class it falls under.
high-valued

Exercise: read the entry COc1ccc2cc(-c3nc(-c4ccccc4C(C)C)[nH]c3-c3ccncc3)ccc2c1 [SB-660566] and state which class it falls under.
mid-valued

Exercise: read the entry CNc1nc(-c2ccc3c(N)n[nH]c3c2)cc(N2C[C@@H](C(=O)NC3CCCCC3)OC[C@H]2C)n1 [GSK2375584] and state which class it falls under.
mid-valued

Exercise: read the entry O=C(Nc1n[nH]c2nc(-c3ccco3)c(Br)cc12)C1CCN(Cc2ccccc2)C1.O=C(O)[C@H](O)[C@@H](O)C(=O)O (stereo not drawn) [SB-742034] and state which class it falls under.
mid-valued

Exercise: read the entry COc1nccc(-c2c(-c3ccc(F)cc3)ncn2CCCN2CCOCC2)n1 [SB-282852] and state which class it falls under.
high-valued

Exercise: read the entry COC(=O)C(NC(=O)NC1CCN(c2ccnc(Nc3ccc(F)cc3)n2)C1)c1ccccc1 (stereo not drawn) [GSK1379712] and state which class it falls under.
low-valued

Exercise: read the entry COc1ccc(Nc2nccc(NCCNC(=O)Nc3cc(C)ccc3C)n2)cc1 [GSK1379899] and state which class it falls under.
mid-valued

Exercise: read the entry Cc1ccc(NC(=O)c2ccc(Cl)cc2)cc1-c1ccc(C(=O)Nc2ccncc2)cc1 [GSK1398467] and state which class it falls under.
high-valued

Exercise: read the entry c1ccc(-c2ccnc3[nH]ccc23)cc1 [SB-693578] and state which class it falls under.
high-valued
